test system: DNA; experiment: Binding affinity to calf thymus DNA at 50 uM by Circular dichroism spectra analysis; assay type: nucleic-acid assay; conditions: Bos taurus
Calls of active or inactive are those of the source. The calls are words filed in the database; no cut-off is given here.
Pick from active, inactive when you respond.

{"compound-structure": "N=C(N)c1ccc2nc(-c3ccccc3-c3nc4ccc(C(=N)N)cc4s3)sc2c1", "group": "active"}
{"compound-structure": "N=C(N)c1ccc2nc(-c3cccc(-c4nc5ccc(C(=N)N)cc5s4)c3)sc2c1", "group": "active"}
{"compound-structure": "N=C(N)c1ccc2nc(-c3ccc(-c4nc5ccc(C(=N)N)cc5s4)cc3)sc2c1", "group": "inactive"}

Query :: What was the test verdict on `Cl.Cl.c1cc(-c2nc3ccc(C4=NCCN4)cc3s2)cc(-c2nc3ccc(C4=NCCN4)cc3s2)c1` ?
Result :: active

Query :: What was the test verdict on `Cl.Cl.c1cc2nc(-c3ccc(-c4nc5ccc(C6=NCCN6)cc5s4)cc3)sc2cc1C1=NCCN1` ?
Result :: inactive

Query :: What was the test verdict on `c1ccc(-c2nc3ccc(C4=NCCN4)cc3s2)c(-c2nc3ccc(C4=NCCN4)cc3s2)c1` ?
Result :: active
